tested on: NCI-H1792; experiment: relative viability (nuclei count vs DMSO), 5 days (fraction); higher = more cells survive; conditions: first compound 0.1265 µM
Could you please mark t for values of relative viability below 0.7 and f for values at or above it?

Previously resolved entries follow.
compound	study_target	class_label
COc1cc(N2CCC(C(N)=O)CC2)ccc1Nc1nc(N)c(Cl)c(Nc2ccccc2S(=O)(=O)C(C)C)n1 [HG-5-88-01] + CC(C)C[C@H](NC(=O)[C@H](Cc1ccccc1)NC(=O)c1cnccn1)B(O)O [Bortezomib] (partner 0.002 µM)	NCI-H1792	f
COc1cc(N2CCC(C(N)=O)CC2)ccc1Nc1nc(N)c(Cl)c(Nc2ccccc2S(=O)(=O)C(C)C)n1 [HG-5-88-01] + Nc1ncn([C@H]2C[C@H](O)[C@@H](CO)O2)c(=O)n1 [Decitabine] (partner 2 µM)	NCI-H1792	t

Q: Item C[C@@H]1CN(CC(=O)Nc2ccc3c(c2)Cc2cccc(-c4cc(=O)cc(N5CCOCC5)o4)c2S3)C[C@H](C)O1 + CC(=O)Nc1cccc(-n2c(=O)n(C3CC3)c(=O)c3c(Nc4ccc(I)cc4F)n(C)c(=O)c(C)c32)c1 [Trametinib] (partner 0.02 µM) : relative viability beneath 0.7, strictly?
A: t

Q: Please answer likewise for Clc1ccc(Nc2nnc(Cc3ccncc3)c3ccccc23)cc1 [Vatalanib] + Cc1nc(Nc2ncc(C(=O)Nc3c(C)cccc3Cl)s2)cc(N2CCN(CCO)CC2)n1 [Dasatinib] (partner 0.075 µM)
A: f

Q: Please answer likewise for COc1cc(N2CCC(C(N)=O)CC2)ccc1Nc1nc(N)c(Cl)c(Nc2ccccc2S(=O)(=O)C(C)C)n1 [HG-5-88-01] + CC1(C)CCC(c2ccc(Cl)cc2)=C(CN2CCN(c3ccc(C(=O)NS(=O)(=O)c4ccc(N[C@H](CCN5CCOCC5)CSc5ccccc5)c(S(=O)(=O)C(F)(F)F)c4)cc3)CC2)C1 [Navitoclax] (partner 0.5 µM)
A: t

Q: Please answer likewise for C[C@@H]1CN(CC(=O)Nc2ccc3c(c2)Cc2cccc(-c4cc(=O)cc(N5CCOCC5)o4)c2S3)C[C@H](C)O1 + O=C(c1cc(Cc2n[nH]c(=O)c3ccccc23)ccc1F)N1CCN(C(=O)C2CC2)CC1 [Olaparib] (partner 8 µM)
A: t

----------
tested on: NCI-H596; assay: relative viability (nuclei count vs DMSO), 5 days (fraction); higher = more cells survive; details: first compound 0.4 µM
Could you please mark yes for values of relative viability below 0.6 and no for values at or above it?

Q: Item C[C@@H]1CN(CC(=O)Nc2ccc3c(c2)Cc2cccc(-c4cc(=O)cc(N5CCOCC5)o4)c2S3)C[C@H](C)O1 + Cc1nc(NC(=O)N2CCC[C@H]2C(N)=O)sc1-c1ccnc(C(C)(C)C(F)(F)F)c1 [Alpelisib] (partner 2 µM) : relative viability beneath 0.6, strictly?
A: yes

Q: Please answer likewise for C[C@@H]1CN(CC(=O)Nc2ccc3c(c2)Cc2cccc(-c4cc(=O)cc(N5CCOCC5)o4)c2S3)C[C@H](C)O1 + C[C@@H](Oc1cc(-c2cnn(C3CCNCC3)c2)cnc1N)c1c(Cl)ccc(F)c1Cl [Crizotinib] (partner 1 µM)
A: no

Q: Please answer likewise for C[C@@H]1CN(CC(=O)Nc2ccc3c(c2)Cc2cccc(-c4cc(=O)cc(N5CCOCC5)o4)c2S3)C[C@H](C)O1 + N=C(N)NC(=N)NCCc1ccccc1 [Phenformin] (partner 250 µM)
A: no

Q: Please answer likewise for Clc1ccc(Nc2nnc(Cc3ccncc3)c3ccccc23)cc1 [Vatalanib] + C[C@@H](Oc1cc(-c2cnn(C3CCNCC3)c2)cnc1N)c1c(Cl)ccc(F)c1Cl [Crizotinib] (partner 1 µM)
A: no

Q: Please answer likewise for Clc1ccc(Nc2nnc(Cc3ccncc3)c3ccccc23)cc1 [Vatalanib] + Nc1ncn([C@H]2C[C@H](O)[C@@H](CO)O2)c(=O)n1 [Decitabine] (partner 2 µM)
A: no

Q: Please answer likewise for C[C@@H]1CN(CC(=O)Nc2ccc3c(c2)Cc2cccc(-c4cc(=O)cc(N5CCOCC5)o4)c2S3)C[C@H](C)O1 + Cc1cc(Nc2cc(N3CCN(C)CC3)nc(Sc3ccc(NC(=O)C4CC4)cc3)n2)n[nH]1 [Tozasertib] (partner 0.1 µM)
A: no

Q: Please answer likewise for COc1cc(N2CCC(C(N)=O)CC2)ccc1Nc1nc(N)c(Cl)c(Nc2ccccc2S(=O)(=O)C(C)C)n1 [HG-5-88-01] + CC(C)C[C@H](NC(=O)[C@H](Cc1ccccc1)NC(=O)c1cnccn1)B(O)O [Bortezomib] (partner 0.002 µM)
A: no

Q: Please answer likewise for Clc1ccc(Nc2nnc(Cc3ccncc3)c3ccccc23)cc1 [Vatalanib] + Cc1nc(NC(=O)N2CCC[C@H]2C(N)=O)sc1-c1ccnc(C(C)(C)C(F)(F)F)c1 [Alpelisib] (partner 2 µM)
A: yes
